Consider the following compounds; for each one, report its selectivity ratio.
test: Therapeutic index, ratio of IC50 for human HeLa cells to EC50 for Giardia lamblia trophozoites isolates; type: cell-based; details: read-out: Ratio IC50/EC50
Keep the answer to the number alone.

**Q:** Kindly indicate its recorded selectivity ratio. Item: Cn1c([N+](=O)[O-])cnc1/C=C/c1cccc2ccccc12
**A:** 1000

**Q:** Kindly indicate its recorded selectivity ratio. Item: Cn1c([N+](=O)[O-])cnc1C(Br)C(Br)c1ccc(Br)cc1 (stereo unspecified)
**A:** 23

**Q:** Kindly indicate its recorded selectivity ratio. Item: Cc1cccc(/C=C/c2ncc([N+](=O)[O-])n2C)c1
**A:** 776

**Q:** Kindly indicate its recorded selectivity ratio. Item: Cc1cc(C)c(/C=C/c2ncc([N+](=O)[O-])n2C)c(C)c1
**A:** 32

**Q:** Kindly indicate its recorded selectivity ratio. Item: Cn1c([N+](=O)[O-])cnc1/C=C/c1ccc(Br)cc1
**A:** 1480

**Q:** Kindly indicate its recorded selectivity ratio. Item: Cn1c([N+](=O)[O-])cnc1/C=C/c1ccccc1Br
**A:** 1480

**Q:** Kindly indicate its recorded selectivity ratio. Item: Cn1c([N+](=O)[O-])cnc1/C=C/c1ccco1
**A:** 2750

**Q:** Kindly indicate its recorded selectivity ratio. Item: CC(=O)OC(c1ccc(Br)cc1)C(OC(C)=O)c1ncc([N+](=O)[O-])n1C (stereo unspecified)
**A:** 436

====

test system: Mus musculus; assay: Toxicity in C57BL/6 mouse at 10 mg/kg, po after 3 days; assay type: organism-based; parameters: dose 10 mg/kg, route oral; details: in vivo, 72 h
measurementType: Activity

- Cn1c([N+](=O)[O-])cnc1/C=C/c1cccc(F)c1: Non-toxic
- Cn1c([N+](=O)[O-])cnc1CCc1ccccc1: Non-toxic
- Cn1c([N+](=O)[O-])cnc1/C=C/c1ccco1: Non-toxic
- Cn1c([N+](=O)[O-])cnc1/C=C/c1ccccc1: Non-toxic
- Cn1c([N+](=O)[O-])cnc1/C=C/c1ccc(Br)cc1: Non-toxic

**Q:** Kindly indicate its recorded Activity. Item: Cn1c([N+](=O)[O-])cnc1/C=C/c1ccsc1
**A:** Non-toxic

**Q:** Kindly indicate its recorded Activity. Item: Cn1ccnc1/C=C/c1ncc([N+](=O)[O-])n1C
**A:** Non-toxic

====

system: Giardia intestinalis; test: Antigiardial activity against metronidazole-resistant Giardia lamblia isolate 713 trophozoite after 2 days by bactiter-glo viability assay; format: functional, organism-based; conditions: Giardia duodenalis, isolate 713, 48 h
pEC50: −log10 of the molar value.
Kind request: treat 7 as inclusive, so pEC50 at 7 or higher is True, anything lower is False.

**Q:** Test whether the compound Cn1c([N+](=O)[O-])cnc1/C=C/c1ccccc1Br records pEC50 of 7 or higher.
**A:** True

**Q:** Test whether the compound Cn1c([N+](=O)[O-])cnc1/C=C/c1ccco1 records pEC50 of 7 or higher.
**A:** True

**Q:** Test whether the compound CCOC(OCC)c1ccc(/C=C/c2ncc([N+](=O)[O-])n2C)cc1 records pEC50 of 7 or higher.
**A:** True

**Q:** Test whether the compound Cn1c([N+](=O)[O-])cnc1C(Br)C(Br)c1ccc(Br)cc1 (stereo unspecified) records pEC50 of 7 or higher.
**A:** False

**Q:** Test whether the compound Cc1cc(C)c(/C=C/c2ncc([N+](=O)[O-])n2C)c(C)c1 records pEC50 of 7 or higher.
**A:** False

**Q:** Test whether the compound Cc1ncc([N+](=O)[O-])n1CCO records pEC50 of 7 or higher.
**A:** False
